Literature survey of pKi (system: Serine/threonine-protein kinase pim-1 (Homo sapiens, UniProt P11309)).
pKi: −log10 of the molar value.
Please map values of pKi to classes as shown: bucket 1 (below 8), bucket 2 (8 to below 10), bucket 3 (10 or more)

INSERT INTO assay_data (compound, class_label) VALUES
  ('Cn1ncc(NC(=O)c2nc(-c3c(F)cccc3F)sc2N)c1N1CCC(N)C2(CCO2)CC1 (single isomer, unassigned)', 'bucket 2'),
  ('COc1nccc(C)c1-c1nc(C(=O)Nc2cnn(C)c2N2CCC[C@H](N)CC2)c(N)s1', 'bucket 2'),
  ('CCn1cc(-c2cc3c(-c4cc(C(C)C)ccn4)n[nH]c3cn2)cn1', 'bucket 1'),
  ('C=C(C)c1ccc(-c2n[nH]c3cnc(-c4cnn(C)c4)cc23)nc1N1CCC[C@H](N)C1', 'bucket 3'),
  ('CN1CCN(c2cc3c(-c4ccccn4)n[nH]c3cn2)CC1=O', 'bucket 1'),
  ('Cn1ncc(NC(=O)c2nc(-c3ccccc3F)sc2N)c1N1CCCC(C)(N)CC1 (stereo not shown)', 'bucket 3'),
  ('c1cncc(-c2cc3c(-c4cnn(C5CCNCC5)c4)n[nH]c3cn2)c1', 'bucket 2'),
  ('Cc1noc(C)c1-c1nc(C(=O)Nc2cnn(C)c2N2CCC[C@H](N)CC2)c(N)s1', 'bucket 2'),
  ('N[C@@H]1CN(c2cccc(-c3n[nH]c4cnc(-c5cccnc5)cc34)n2)CC[C@H]1F (relative stereo)', 'bucket 2'),
  ('Cn1ncc(NC(=O)c2nc(-c3c(F)cccc3F)sc2N)c1C1CCC(N)CC1 (stereo not shown)', 'bucket 2'),
  ('CNC(=O)C1(N)CCN(c2cccc(-c3n[nH]c4cnc(-c5cccnc5)cc34)n2)CC1', 'bucket 2'),
  ('c1cc(-c2n[nH]c3cnc(N4CCOCC4)cc23)nc(N2CCNCC2)c1', 'bucket 2'),
  ('O=C1OCCN1c1cc2c(-c3cccc(N4CCNCC4)n3)n[nH]c2cn1', 'bucket 1'),
  ('Cn1ncc(NC(=O)c2nc(-c3cc(F)ccc3F)sc2N)c1N1CCNCC(F)(F)C1', 'bucket 3'),
  ('Nc1sc(-c2c(F)cccc2F)nc1C(=O)Nc1cnn(CC(F)F)c1N1CCC(N)C(O)CC1 (single isomer, unassigned)', 'bucket 3'),
  ('Cn1ncc(NC(=O)c2cncc(-c3ccccc3F)n2)c1N1CCC[C@H](N)CC1', 'bucket 1'),
  ('Cn1cc(-c2cc3c(-c4ccc(Br)c(N5CCC[C@@H](O)C5)n4)n[nH]c3cn2)cn1', 'bucket 2');

----------
Literature survey of pKi (system: Serine/threonine-protein kinase pim-1 (Homo sapiens, UniProt P11309)).
pKi: −log10 of the molar value.
Please map values of pKi to classes as shown: LOW (below 9), MID (9 to below 10), HIGH (10 or more)

INSERT INTO measurements (molecule, tested_system, class_label) VALUES
  ('CCn1cncc(-c2cc3c(-c4cccc(N5CCNCC5)n4)n[nH]c3cn2)c1=O', 'Serine/threonine-protein kinase pim-1 (Homo sapiens, UniProt P11309)', 'HIGH'),
  ('Cc1cc(-c2nc(C(=O)Nc3cnn(C)c3N3CC[C@@H](N)[C@H](F)CC3)c(N)s2)cc(C)n1', 'Serine/threonine-protein kinase pim-1 (Homo sapiens, UniProt P11309)', 'LOW'),
  ('C=C(C)c1ccc(-c2n[nH]c3cnc(-c4cnn(CC)c4)cc23)nc1N1CCC[C@H](N)C1', 'Serine/threonine-protein kinase pim-1 (Homo sapiens, UniProt P11309)', 'HIGH'),
  ('Fc1ccccc1-c1n[nH]c2cnc(-c3cnccn3)cc12', 'Serine/threonine-protein kinase pim-1 (Homo sapiens, UniProt P11309)', 'LOW'),
  ('COC1(C)CC(N)CCN(c2c(NC(=O)c3nc(-c4c(F)cncc4F)sc3N)cnn2C)C1 (stereo not drawn)', 'Serine/threonine-protein kinase pim-1 (Homo sapiens, UniProt P11309)', 'MID'),
  ('Cc1ccc(-c2n[nH]c3cnc(-c4cccnc4)cc23)nc1', 'Serine/threonine-protein kinase pim-1 (Homo sapiens, UniProt P11309)', 'LOW'),
  ('CCn1cc(-c2cc3c(-c4ccc(C)c(N5C[C@@H](N)C[C@@H](F)C5)n4)n[nH]c3cn2)cn1', 'Serine/threonine-protein kinase pim-1 (Homo sapiens, UniProt P11309)', 'HIGH'),
  ('Cn1ncc(NC(=O)c2nc(-c3ccccc3F)sc2N)c1N1CCNC[C@]2(CCO2)C1 (single isomer, unassigned)', 'Serine/threonine-protein kinase pim-1 (Homo sapiens, UniProt P11309)', 'MID'),
  ('Cc1ccc(F)c(-c2nc(C(=O)Nc3cnn(C)c3N3CCC[C@@H](N)CC3)c(N)s2)c1F', 'Serine/threonine-protein kinase pim-1 (Homo sapiens, UniProt P11309)', 'HIGH'),
  ('Cn1ncc(NC(=O)c2nc(-c3c(F)cccc3F)sc2N)c1N1CCCN(C2CNC2)CC1', 'Serine/threonine-protein kinase pim-1 (Homo sapiens, UniProt P11309)', 'MID'),
  ('CCc1cncc(-c2cc3c(-c4cccc(N5CCNCC5)n4)n[nH]c3cn2)c1', 'Serine/threonine-protein kinase pim-1 (Homo sapiens, UniProt P11309)', 'HIGH'),
  ('NCCNc1cccc(-c2n[nH]c3cnc(-c4cccnc4)cc23)n1', 'Serine/threonine-protein kinase pim-1 (Homo sapiens, UniProt P11309)', 'MID'),
  ('CCOc1ccc(F)c(-c2nc(C(=O)Nc3cnccc3N3CCC[C@H](N)C3)c(N)s2)c1F', 'Serine/threonine-protein kinase pim-1 (Homo sapiens, UniProt P11309)', 'HIGH'),
  ('c1cncc(-c2cc3c(-c4cc[nH]n4)n[nH]c3cn2)c1', 'Serine/threonine-protein kinase pim-1 (Homo sapiens, UniProt P11309)', 'LOW'),
  ('Fc1cncc(-c2cc3c(-c4cccc(N5CCNCC5)n4)n[nH]c3cn2)c1', 'Serine/threonine-protein kinase pim-1 (Homo sapiens, UniProt P11309)', 'MID'),
  ('O=c1cccc(-c2n[nH]c3cnc(-c4cccnc4)cc23)[nH]1', 'Serine/threonine-protein kinase pim-1 (Homo sapiens, UniProt P11309)', 'LOW'),
  ('c1ccc(-c2n[nH]c3cnc(-c4cccnc4)cc23)nc1', 'Serine/threonine-protein kinase pim-1 (Homo sapiens, UniProt P11309)', 'LOW'),
  ('N[C@H]1CCC[C@@H](Nc2cccc(-c3n[nH]c4cnc(-c5cccnc5)cc34)n2)C1', 'Serine/threonine-protein kinase pim-1 (Homo sapiens, UniProt P11309)', 'HIGH'),
  ('CCn1cc(-c2cc3c(-c4cccc(N5CCN[C@H](C)C5)n4)n[nH]c3cn2)cn1', 'Serine/threonine-protein kinase pim-1 (Homo sapiens, UniProt P11309)', 'HIGH');
